System: HOP-62
experimental_protocol: Growth inhibition of human HOP62 cells
Assay type: functional
Sorting guide: entries reporting GI50 beneath 400 nM go in the satisfied pile, the rest go in the not satisfied pile.

Exercise: Criterion: GI50 strictly below 400 nM. Is it met by CCc1cc2c(cc1OS(N)(=O)=O)CC[C@@H]1[C@@H]2CC[C@]2(C)[C@@H](OS(N)(=O)=O)CC[C@@H]12 ?
Solution: satisfied

Exercise: Criterion: GI50 strictly below 400 nM. Is it met by COc1cc2c(cc1OS(N)(=O)=O)CC[C@@H]1[C@@H]2CC[C@]2(C)[C@@H](CC(C)O)CC[C@@H]12 (stereo partly specified) ?
Solution: satisfied

Exercise: Criterion: GI50 strictly below 400 nM. Is it met by CCc1cc2c(cc1OS(N)(=O)=O)CC[C@@H]1[C@@H]2CC[C@]2(C)[C@@H](CCO)CC[C@@H]12 ?
Solution: satisfied

Exercise: Criterion: GI50 strictly below 400 nM. Is it met by CCc1cc2c(cc1OS(N)(=O)=O)CC[C@@H]1[C@@H]2CC[C@]2(C)/C(=C/CO)CC[C@@H]12 ?
Solution: not satisfied

Exercise: Criterion: GI50 strictly below 400 nM. Is it met by CCc1cc2c(cc1OS(N)(=O)=O)CC[C@@H]1[C@@H]2CC[C@]2(C)[C@@H](CCOC)CC[C@@H]12 ?
Solution: not satisfied

Exercise: Criterion: GI50 strictly below 400 nM. Is it met by CCc1cc2c(cc1OS(N)(=O)=O)CC[C@@H]1[C@@H]2CC[C@]2(C)[C@@H](COC)CC[C@@H]12 ?
Solution: satisfied
